# Tested on: NCI/ADR-RES
# protocolNotes: NCI tumour cell line growth inhibition, 48 h
Active and inactive are the calls of the source. Rule as the data show it: active = GI50 up to about 1.1 µM and inactive = higher.
Could you please pick one outcome from this set? active, inactive

CN(C)CCN1Nc2c3ccccc3nc3c(C(=O)NCCCN(C)CCCNC(=O)c4ccc5c6c(c7ccccc7nc46)NN5CCN(C)C)ccc1c23: inactive
CCOC(=O)/C=C(\C(=O)OCC)n1cc(C)c(=O)n(Cc2cn(CCCCOC(C)=O)nn2)c1=O: inactive
Cn1c2ccccc2c2c3c(c4c5ccccc5n(C)c4c21)C(=O)N(c1ccccc1)C3=O: inactive
COC(=O)C1=C(C)NC(C)=C(C(=O)OCCCN2CCC(c3ccccc3)(c3ccccc3)CC2)[C@H]1c1cccc([N+](=O)[O-])c1: inactive
CC1=C(C(=O)OCCc2ccc([N+](=O)[O-])cc2)C(c2cccc([N+](=O)[O-])c2)C(C(=O)OC(C)C)=C(C)N1 (centres undefined): inactive

Now take the following molecule into account.
Q: Please let me know the test result on file for CCCCCCCCCCCCCCCCC(=O)NCC(=O)NCC(=O)NC(Cc1ccccc1)C(=O)Oc1ccc([N+](=O)[O-])cc1 (centres undefined) .
Result: inactive

====

# System: SF-268
# protocolNotes: NCI tumour cell line growth inhibition, 48 h
Calls of active or inactive are those of the source. Rule as the data show it: active = GI50 up to about 1.1 µM and inactive = higher.
GI50 by entry:

O=c1nc(/C=C/c2ccccc2Cl)cc2n1CCN2CCO: 67.6 µM (inactive)
Oc1ccc2c3c1OC1C(=NN=C4CCC5(O)C6Cc7ccc(O)c8c7C5(CCN6CC5CC5)C4O8)CCC4(O)C(C2)N(CC2CC2)CCC314 (stereo not drawn): > 50.4 µM (inactive)
CCCCCCCCCCCCCCCCCCNc1nc(=O)n(C2CC(OP(=O)(O)OCC3OC(n4cc(F)c(=O)[nH]c4=O)CC3O)C(CO)O2)cc1F (stereo not drawn): 12.4 µM (inactive)
OC(c1cc2ccccc2o1)c1cc2ccccc2s1 (stereo not drawn): > 10 µM (inactive)
C1=Cc2ccccc2C1.C=C(C)c1ccccc1.[N-]=[N+]=Nc1ccccc1: > 100 µM (inactive)

Q: Short answer please: GI50, SF-268, entry CCOC(=O)CNC1=Nc2ccccc2C(=O)N2CSCC12 (stereo not drawn)
Result: > 100 µM (inactive)

Q: What do we get for CCOC(=O)/C=C/c1c(C)[nH]c(=O)[nH]c1=O ?
Result: > 250 µM (inactive)

Q: What do we get for CC(=O)OC[C@@H]1[C@H]2CC[C@]3(C)[C@@H](OC(C)=O)CC[C@H]3[C@@H]2CC[C@H]1C1(C)SCCS1 ?
Result: > 25 µM (inactive)

Q: What do we get for Clc1cccc(C2SCc3nc4ccccc4n32)c1 (stereo not drawn) ?
Result: 28.8 µM (inactive)

Q: What do we get for Cc1nc2ccc(Cl)cc2c2c1CCO2 ?
Result: 68.9 µM (inactive)

Q: What do we get for CCCCCCCCCCCCCCCCC(=O)NCC(=O)NCC(=O)NC(Cc1ccccc1)C(=O)Oc1ccc([N+](=O)[O-])cc1 (stereo not drawn) ?
Result: 23.3 µM (inactive)

====

# Tested on: MDA-MB-231
# protocolNotes: NCI tumour cell line growth inhibition, 48 h
The source made the active and inactive calls. No stated cut-off is given here; in the data, active = GI50 up to about 1.1 µM and inactive = higher.
Could you please pick one outcome from this set? 1 = active, 0 = inactive

Take a look at these entries with their results.
Cc1ccc(S(=O)(=O)c2ccsc2NC(=O)c2ccccc2)cc1: 0
Oc1ccc2ccccc2c1/N=N/c1cccc2ccccc12: 0
CC(=O)OCC(=O)[C@@]12OC(C)(C)O[C@@H]1C[C@H]1[C@@H]3CC=C4C[C@@H](O)CC[C@]4(C)[C@H]3CC[C@@]12C: 0
O=C1NC2(CCN(CCCC3(c4ccc(F)cc4)OCCO3)CC2)Oc2ccccc21: 0
CN1C(=O)c2ccccc2C(O)(c2ccccc2)C1(O)c1ccccc1 (stereo not given): 0
CCCCCCCC1c2cc3nc(cc4[nH]c(cc5nc(cc([nH]2)[C@@]1(C)CC(=O)N(C)C)C(C)=C5CCC(=O)O)c(CCC(=O)O)c4C)C=C3C (stereo not given in full): 0

Q: Please let me know the test result on file for CC1OC(n2cnc3c(N)nc(Cl)nc32)C(C)(O)C1O (stereo not given) .
Result: 0

Q: What do we get for O=C(O)c1cccc(NC(C(=O)c2ccccc2)c2ccccc2)c1 (stereo not given) ?
Result: 0

Q: What do we get for N#Cc1ccc(-c2nc(C#N)c(N)o2)cc1 ?
Result: 0

Q: What do we get for Cc1cccc2c1c(=O)c1c(O)cc3c(c1n2C)C=CC(C)(C)O3 ?
Result: 0

FYI, the data here is from ChEMBL document CHEMBL1201862.
